# target_system: human EP4 receptors (Homo sapiens, UniProt P35408)
# Construct: expressed in transfected cells
# Sequence (P35408 whole entry): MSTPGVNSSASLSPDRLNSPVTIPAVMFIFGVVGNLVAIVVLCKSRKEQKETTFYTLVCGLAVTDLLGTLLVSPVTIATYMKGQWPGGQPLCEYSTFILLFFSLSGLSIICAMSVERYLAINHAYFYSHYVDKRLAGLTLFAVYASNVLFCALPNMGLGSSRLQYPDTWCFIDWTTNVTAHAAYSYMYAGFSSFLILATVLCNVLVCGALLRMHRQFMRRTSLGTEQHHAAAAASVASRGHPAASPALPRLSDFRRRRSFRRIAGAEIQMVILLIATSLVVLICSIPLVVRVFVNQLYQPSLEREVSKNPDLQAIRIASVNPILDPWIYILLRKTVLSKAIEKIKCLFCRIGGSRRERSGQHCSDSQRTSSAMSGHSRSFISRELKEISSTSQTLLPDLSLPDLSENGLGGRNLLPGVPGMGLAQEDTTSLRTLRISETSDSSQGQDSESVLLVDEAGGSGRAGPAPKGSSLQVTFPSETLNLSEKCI
# protocol_text: cell-based cAMP TR-FRET assay, EP4 (agonist PGE2)
# condition_details: Table 2; extrapolated Schild KB from single concentration of 10 μM
Exercise: state measured potency estimated from few doses for each of the compounds provided.
Field format: number, assumed µM, no unit text.

Kindly indicate its recorded potency estimated from few doses. Item: CCN(CC)c1ccc(C(=O)NCCc2c(C)[nH]c3ccccc23)cc1 [Compound 9a]
48

Kindly indicate its recorded potency estimated from few doses. Item: Cc1cc2ccccc2n1CCNC(=O)c1ccc(N2CCCCCC2)cc1 [Compound 7o]
23.6

Kindly indicate its recorded potency estimated from few doses. Item: Cc1cc2ccccc2n1CCNC(=O)c1ccc(N2CCCCC2)cc1 [Compound 7k]
30.2

Kindly indicate its recorded potency estimated from few doses. Item: Cc1cc2ccccc2n1CCNC(=O)c1ccc(N(C)C)cc1 [Compound 6e]
51

---

# target_system: human IP receptors (Homo sapiens)
# Construct: expressed in transfected cells
# Sequence (P43119 whole entry): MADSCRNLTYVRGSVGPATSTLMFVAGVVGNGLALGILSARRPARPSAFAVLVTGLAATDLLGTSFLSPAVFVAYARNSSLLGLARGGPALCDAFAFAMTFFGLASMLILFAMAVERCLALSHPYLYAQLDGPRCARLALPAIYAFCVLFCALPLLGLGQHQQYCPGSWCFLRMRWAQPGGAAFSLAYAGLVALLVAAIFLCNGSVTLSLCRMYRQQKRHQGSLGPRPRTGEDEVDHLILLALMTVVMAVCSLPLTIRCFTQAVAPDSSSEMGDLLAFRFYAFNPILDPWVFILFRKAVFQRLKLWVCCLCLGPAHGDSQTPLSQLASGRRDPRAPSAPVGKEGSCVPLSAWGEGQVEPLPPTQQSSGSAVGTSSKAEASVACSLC
# protocol_text: cell-based cAMP TR-FRET assay, IP (agonist iloprost)
# condition_details: Table 2; extrapolated Schild KB from single concentration of 10 μM
property: potency estimated from few doses (µM)
Field format: number, assumed µM, no unit text.

# return potency estimated from few doses for `Cc1cc2ccccc2n1CCNC(=O)c1ccc(N2CCOCC2)cc1` , test system: human IP receptors (Homo sapiens)
1.98

# return potency estimated from few doses for `Cc1cc2ccccc2n1CCNC(=O)c1ccc(N2CCOCC2)c(F)c1` , test system: human IP receptors (Homo sapiens)
5.6

# return potency estimated from few doses for `Cc1cc2ccccc2n1CCNC(=O)c1ccc(N2CCCC2)cc1` , test system: human IP receptors (Homo sapiens)
14.2

---

Exercise: state measured Kb for each of the molecules provided.
# target_system: human EP2 receptors (Homo sapiens, UniProt P43116)
# Construct: expressed in transfected cells
# Sequence (P43116 whole entry): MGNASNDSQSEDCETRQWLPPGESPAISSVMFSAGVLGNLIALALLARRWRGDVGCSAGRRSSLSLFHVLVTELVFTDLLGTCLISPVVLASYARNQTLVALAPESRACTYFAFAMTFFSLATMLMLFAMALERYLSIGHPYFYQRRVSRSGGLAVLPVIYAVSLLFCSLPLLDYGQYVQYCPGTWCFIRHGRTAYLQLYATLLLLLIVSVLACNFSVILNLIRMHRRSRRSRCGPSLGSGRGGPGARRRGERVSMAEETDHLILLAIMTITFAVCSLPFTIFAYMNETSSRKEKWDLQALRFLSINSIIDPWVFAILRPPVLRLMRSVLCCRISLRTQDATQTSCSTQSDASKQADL
# protocol_text: cell-based cAMP TR-FRET assay, rightward shift of PGE2 concentration response curve (Schild KB), EP2
# condition_details: Table 1; Schild KB from single antagonist concentration 1 μM; average of 2-3 measurements in duplicate; read-out: EP2 KB

Kindly indicate its recorded Kb. Item: `Cc1cc2ccccc2n1CCNC(=O)c1ccc(O)cc1`
> 1 µM

Kindly indicate its recorded Kb. Item: `Cc1cc2ccccc2n1CCNC(=O)c1cccc(N2CCOCC2)c1`
> 1 µM

Kindly indicate its recorded Kb. Item: `Cc1cc2ccccc2n1CCNC(=O)c1ccc(C(=O)N(C)C)cc1`
> 1 µM
